Kindly state inhibition for each of the entries shown.
- assay-overview: growth inhibitors of tim10-1 mutant yeast, primary screen, luminescence, uHTS (AID 463190);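 also: mutant grown at 25 °C; 0% = DMSO wells with yeast and 100% = wells holding no yeast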
- condition-parameters: S. cerevisiae tim10-1 ts strain growth, BacTiter-Glo, 24 h; at 20 µM; hits give high values
Among all 330,000 compounds or so, about 7,300 (2.2%) were called active. The full list was thinned out, with actives kept by preference.
Give bare numbers, in %.

In the examples that follow, each entry is paired with its recorded inhibition.
O=C(c1cnc(Cl)c(Cl)c1)N1CCN(S(=O)(=O)c2ccc(F)cc2)CC1 = 3.46
CC(c1cccnc1)N(CCN(C)C)C(=O)Nc1ccc(Cl)c(Cl)c1 (stereo unspecified) = 4.37
COC(=O)CCc1sc(Nc2ccc(Br)cc2)nc1-c1ccc(OC)cc1 = 46.4
O=c1[nH]c2ccccc2s1 = 8.84
CCc1noc(C)c1C(=O)Nc1nc2ccc(OC)cc2s1 = 26.7
Cc1ccccc1OCC(=O)Nc1ccc(N2CCN(C(=O)C(C)C)CC2)c(Cl)c1 = 63.3

Batch of 2 molecules: report inhibition for each.
1. Cc1cc(F)ccc1NC(=O)C(C)n1c2ccccc2c2nc(=O)cc(C)n21 (stereo unspecified)
2. Cc1ccccc1OCC(=O)Nc1ccc2c(c1)ncn2C

a:
[13.9, 5.78]

Batch of 2 molecules: report inhibition for each.
1. Cc1ccc(OC(=O)CCC(=O)Nc2ccc(Br)cc2)cc1
2. CC12CN(NC(=O)c3ccc(Cl)cc3)C3(C#N)CC1CCC23C (stereo unspecified)

a:
1: 0.584; 2: 36.5

The molecule identified as COC(=O)c1ccc(CNC(=O)C2CCC(=O)N(Cc3cccc(F)c3)C2)cc1 (stereo unspecified) registered its inhibition at -22.8
